# Tested on: TK-10
# method-summary: NCI tumour cell line growth inhibition, 48 h
Activity calls are given as the source filed them. Cut-off read from the data, not from the text of the source: active = GI50 up to about 1.1 µM and inactive = higher.
endpoint-label: GI50

Query: Determine its reported GI50: `CC(C)C(=O)/C=C/c1ccc(Cl)cc1Cl`
Reply: 14.2 µM (inactive)

Query: Determine its reported GI50: `CC(=O)O[C@H]1C(=O)[C@@]2(C)[C@H]([C@H](OC(=O)c3ccoc3)[C@]3(O)C[C@H](OC(=O)[C@H](O)[C@@H](NC(=O)c4ccccc4)c4ccccc4)C(C)=C1C3(C)C)[C@]1(OC(C)=O)CO[C@@H]1C[C@@H]2O`
Reply: > 2.99 µM (inactive)

Query: Determine its reported GI50: `O=C1c2ccccc2C(=O)c2c(NC(=O)c3ccc4c5c(ncnc35)-c3ccccc3C4=O)cccc21`
Reply: 21.8 µM (inactive)

Query: Determine its reported GI50: CC(C)(C)OC(=O)NC1CC2(C=C(Br)C(=O)C(Br)=C2)OC1=O (stereo unspecified)
Reply: 5.38 µM (inactive)

Query: Determine its reported GI50: `COc1cc2ccnc([C@@H](OC(=O)c3ccccc3)c3ccc(OC)c(OC)c3OC)c2cc1OC`
Reply: 75.5 µM (inactive)

Query: Determine its reported GI50: `Cn1c(=O)c2c(nc(NCCCCl)n2CC(=O)O)n(C)c1=O`
Reply: > 100 µM (inactive)

Query: Determine its reported GI50: `O=[N+]([O-])c1c(F)c(F)c2c(c1F)Nc1ccccc1S2`
Reply: 23.8 µM (inactive)

Query: Determine its reported GI50: `CCCC(=O)Nc1cn(COC)c(C(=O)N2C[C@@H]3C[C@]34C2=CC(=O)c2[nH]cc(C)c24)n1`
Reply: 7.96 µM (inactive)

Query: Determine its reported GI50: `CN(C)CCNC(=O)c1cccc2c(Nc3ccc(S(N)(=O)=O)cc3)c3ccccc3nc12`
Reply: 1.97 µM (inactive)

Query: Determine its reported GI50: `COC(=O)CN1CCS/C1=N/C#N`
Reply: > 100 µM (inactive)

Query: Determine its reported GI50: `C[C@@]12[Se]c3ccccc3[C@]1(C)[Se]c1ccccc12`
Reply: > 100 µM (inactive)

Query: Determine its reported GI50: `CCOC(=O)/C(C#N)=C/c1coc2cc(C)cc(C)c2c1=O`
Reply: > 100 µM (inactive)

Query: Determine its reported GI50: `CC(C)(C)C1=CC(=C2C(=O)C(=O)c3ccccc3C2=O)C=C(C(C)(C)C)C1=O`
Reply: 84.9 µM (inactive)

Query: Determine its reported GI50: O=C(O)c1cc2c(cc1S(=O)(=O)O)C1C(C3C2C2(Cl)C(Cl)=C(Cl)C3(Cl)C2(Cl)Cl)C2(Cl)C(Cl)=C(Cl)C1(Cl)C2(Cl)Cl (stereo unspecified)
Reply: > 100 µM (inactive)

Query: Determine its reported GI50: `CCOC(=O)c1nc2cc(F)c(F)cc2nc1NCc1cc(OC)c(OC)c(OC)c1`
Reply: > 100 µM (inactive)

Query: Determine its reported GI50: C/C=C(/C)C(=O)O[C@H]1[C@H](O)CC(c2ccc3c(c2O)C(=O)C2=C(O)C4(OC)C(=O)C(C(N)=O)=C(O)[C@H](CC(=O)c5ccccc5O)C4CC2[C@@]3(C)OC)O[C@@H]1C (stereo partly specified)
Reply: 0.00817 µM (active)

The origin of these recorded values is ChEMBL document CHEMBL1201862.
